measured_target: Neuronal acetylcholine receptor; alpha4/beta2 (Homo sapiens, UniProt P17787+P43681)
Sequence (P17787 whole entry): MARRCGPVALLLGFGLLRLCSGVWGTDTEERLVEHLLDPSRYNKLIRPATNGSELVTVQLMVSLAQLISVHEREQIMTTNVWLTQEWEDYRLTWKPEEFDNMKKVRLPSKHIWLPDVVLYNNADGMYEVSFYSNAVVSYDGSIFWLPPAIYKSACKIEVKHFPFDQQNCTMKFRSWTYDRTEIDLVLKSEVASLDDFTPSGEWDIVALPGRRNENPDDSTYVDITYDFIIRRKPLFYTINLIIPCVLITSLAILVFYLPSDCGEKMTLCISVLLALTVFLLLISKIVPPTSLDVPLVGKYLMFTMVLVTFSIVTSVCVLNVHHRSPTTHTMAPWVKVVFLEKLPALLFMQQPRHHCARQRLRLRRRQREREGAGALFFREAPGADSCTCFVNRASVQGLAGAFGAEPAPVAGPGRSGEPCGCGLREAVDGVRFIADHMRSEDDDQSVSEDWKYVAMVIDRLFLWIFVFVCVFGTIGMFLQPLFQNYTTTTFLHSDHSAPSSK
Sequence (P43681 whole entry): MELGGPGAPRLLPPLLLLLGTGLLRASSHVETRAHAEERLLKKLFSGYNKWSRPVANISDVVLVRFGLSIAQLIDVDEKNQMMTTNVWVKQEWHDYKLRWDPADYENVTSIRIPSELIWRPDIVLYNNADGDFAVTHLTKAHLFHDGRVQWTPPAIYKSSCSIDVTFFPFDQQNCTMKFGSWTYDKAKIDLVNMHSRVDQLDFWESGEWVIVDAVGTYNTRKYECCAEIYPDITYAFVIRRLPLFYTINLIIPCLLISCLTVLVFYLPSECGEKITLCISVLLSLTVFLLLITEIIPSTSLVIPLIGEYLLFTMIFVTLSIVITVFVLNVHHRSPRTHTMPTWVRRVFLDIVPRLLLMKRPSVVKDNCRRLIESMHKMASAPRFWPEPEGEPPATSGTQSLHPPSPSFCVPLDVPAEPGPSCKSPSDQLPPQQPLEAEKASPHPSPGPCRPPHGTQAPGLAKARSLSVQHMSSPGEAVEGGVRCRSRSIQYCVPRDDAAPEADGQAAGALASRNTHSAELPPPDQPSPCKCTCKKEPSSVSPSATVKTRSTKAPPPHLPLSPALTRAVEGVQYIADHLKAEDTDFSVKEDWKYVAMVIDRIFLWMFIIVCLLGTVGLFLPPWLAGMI
method_summary: Displacement of [3H]cytisine from human alpha4beta2 nAChR expressed in CHOK1 cell membrane by microbeta scintillation counting method
Categorize each record by its Ki using lower = under 8 nM, middle = from 8 nM up to 200 nM, upper = 200 nM and over

# compound, measured_target, discrete_label
data = [
    ("c1cncc(N2CCC3(CCCN3)C2)c1 (configuration not stated)", "Neuronal acetylcholine receptor; alpha4/beta2 (Homo sapiens, UniProt P17787+P43681)", "middle"),
    ("Clc1cncc(OC[C@@H]2CC[C@H]3C[C@H]3N2)c1", "Neuronal acetylcholine receptor; alpha4/beta2 (Homo sapiens, UniProt P17787+P43681)", "middle"),
    ("Clc1ccc(OC[C@]23C[C@H]2CCN3)cn1", "Neuronal acetylcholine receptor; alpha4/beta2 (Homo sapiens, UniProt P17787+P43681)", "upper"),
    ("Cl.Clc1ccc(OC[C@@H]2C[C@H]3C[C@H]3N2)cn1", "Neuronal acetylcholine receptor; alpha4/beta2 (Homo sapiens, UniProt P17787+P43681)", "lower"),
    ("Clc1cncc(OCC[C@@H]2C[C@H]3C[C@H]3N2)c1", "Neuronal acetylcholine receptor; alpha4/beta2 (Homo sapiens, UniProt P17787+P43681)", "upper"),
]

# input // return the class label for "Cc1ncccc1OC[C@@H]1C[C@H]2C[C@H]2N1C"
# output upper

====

Test system: Rattus norvegicus
method_summary: Antidepressant activity in Wistar rat assessed as immobility time at 3.0 mg/kg, po measured for 5 mins by forced swim test (reference value: 241.9 to 281.6 sec)
Type: functional
property_measured: Time (s)
Write the number in s without appending the unit.

Use these answered entries as a reference point.
# compound, unit_symbol, Time
rows = [
    ("Cl.Clc1ccc(OC[C@H]2C[C@@H]3C[C@@H]3N2)cn1", "s", 256.8),
    ("c1cncc(N2CCC3(CCCN3)C2)c1 (stereo not drawn)", "s", 249.1),
]

# input Input "Cl.Fc1ccc(OC[C@@H]2C[C@H]3C[C@H]3N2)cn1" , output reported Time.
# output 259.6

# input Could you please provide reported Time for "Cl.Clc1ccc(OC[C@@H]2C[C@H]3C[C@H]3N2)cn1" ? Thanks!
# output 155.9

# input Quote Time reported for "Cc1ncccc1OC[C@@H]1C[C@H]2C[C@H]2N1.Cl" please.
# output 204.8

# input Answer with reported Time of "Cl.c1cncc(OC[C@@H]2C[C@H]3C[C@H]3N2)c1"
# output 231

# input Please give the documented Time of "Cl.Clc1ccc(OC[C@@H]2CC[C@H]3C[C@H]3N2)cn1"
# output 238.6

# input Give Time for "Cl.Clc1cncc(OC[C@@H]2C[C@H]3C[C@H]3N2)c1"
# output 249.9

====

method_summary: Ratio of drug level in brain to plasma in Wistar rat at 10 ml/kg, po or 2 ml/kg, iv measured upto 24 hrs by LC-MS/MS analysis
Type: ADME, organism-based
condition_summary: brain and plasma, read-out: BPR
property_measured: Kp at 24 h
Returns: the value as a bare number; no unit string appended.

# smiles, Kp at 24 h
measured = [
    ("Cl.Clc1ccc(OC[C@H]2C[C@@H]3C[C@@H]3N2)cn1", 3.83),
    ("Cl.Clc1ncccc1OC[C@@H]1C[C@H]2C[C@H]2N1", 3.6),
    ("Cl.Fc1ccc(OC[C@@H]2C[C@H]3C[C@H]3N2)cn1", 2.38),
    ("Cl.Clc1ccc(OC[C@@H]2CC[C@H]3C[C@H]3N2)cn1", 0.16),
]

Turning now to a further record.
# input Retrieve Kp at 24 h measured for "Cl.c1cncc(OC[C@@H]2C[C@@H]3C[C@@H]3N2)c1" and print it.
# output 3.07

====

method_summary: Metabolic stability in human liver microsomes assessed as compound metabolism incubated for 30 mins in presence of NADPH by LC-MS/MS analysis
Type: ADME, Microsome
condition_summary: read-out: Drug metabolism
Property: metabolised at 0.5 h; scope: individual compounds

Example compounds with recorded metabolised at 0.5 h:
# smiles, metabolised at 0.5 h
records = [
    ("Clc1cncc(OC[C@H]2NC[C@@H]3C[C@@H]32)c1", "6.04%"),
    ("Clc1ccc(OC[C@H]2C[C@H]3C[C@H]3N2)cn1", "18.3%"),
]

Below: the item to evaluate.
# input Supply recorded metabolised at 0.5 h for "Cl.Clc1ccc(OC[C@@H]2C[C@@H]3C[C@@H]3N2)cn1" here.
# output 13.6%

====

method_summary: Half life in Wistar rat at 10 ml/kg, po or 2 ml/kg, iv measured upto 24 hrs by LC-MS/MS analysis
Assay type: ADME, organism-based
condition_summary: in vivo
So basically every entry gets a class from its half-life, ranges being low = under 1 h, intermediate = from 1 h up to 3 h, high = 3 h and over

Some solved cases for reference:
# smiles, discrete_label
measured = [
    ("Cl.Clc1cncc(OC[C@@H]2C[C@H]3C[C@H]3N2)c1", "intermediate"),
    ("Cl.c1cncc(OC[C@@H]2C[C@H]3C[C@H]3N2)c1", "high"),
    ("Cl.Clc1ccc(OC[C@H]2C[C@@H]3C[C@@H]3N2)cn1", "intermediate"),
]

# input Where would "Cl.c1cncc(OC[C@@H]2C[C@@H]3C[C@@H]3N2)c1" land among the classes by reported half-life?
# output intermediate

# input Determine which band this compound sits in: "Cl.Clc1ccc(OC[C@@H]2C[C@@H]3C[C@@H]3N2)cn1"
# output intermediate

# input Entry "Cl.Clc1ccc(OC[C@@H]2C[C@H]3C[C@H]3N2)cn1" belongs to which category?
# output high

====

measured_target: Neuronal acetylcholine receptor; alpha4/beta2 (Rattus norvegicus, UniProt P09483+P12390)
Sequence (P09483 whole entry): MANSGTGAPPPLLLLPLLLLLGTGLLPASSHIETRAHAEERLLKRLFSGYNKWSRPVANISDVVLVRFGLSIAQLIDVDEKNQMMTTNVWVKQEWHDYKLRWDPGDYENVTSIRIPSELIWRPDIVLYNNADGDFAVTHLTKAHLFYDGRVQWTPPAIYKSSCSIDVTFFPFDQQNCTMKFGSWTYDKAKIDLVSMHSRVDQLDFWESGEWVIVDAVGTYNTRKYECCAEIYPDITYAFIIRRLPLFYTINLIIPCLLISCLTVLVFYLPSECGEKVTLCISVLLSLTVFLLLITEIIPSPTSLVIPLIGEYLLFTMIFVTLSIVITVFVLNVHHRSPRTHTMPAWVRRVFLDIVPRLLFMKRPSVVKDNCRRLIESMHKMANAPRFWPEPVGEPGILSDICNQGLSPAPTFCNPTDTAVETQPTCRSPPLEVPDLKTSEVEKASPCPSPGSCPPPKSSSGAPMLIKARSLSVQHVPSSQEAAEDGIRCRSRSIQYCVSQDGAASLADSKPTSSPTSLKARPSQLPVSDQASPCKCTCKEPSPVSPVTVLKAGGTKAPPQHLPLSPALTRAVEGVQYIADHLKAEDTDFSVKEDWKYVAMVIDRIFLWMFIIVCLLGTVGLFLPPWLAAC
Sequence (P12390 whole entry): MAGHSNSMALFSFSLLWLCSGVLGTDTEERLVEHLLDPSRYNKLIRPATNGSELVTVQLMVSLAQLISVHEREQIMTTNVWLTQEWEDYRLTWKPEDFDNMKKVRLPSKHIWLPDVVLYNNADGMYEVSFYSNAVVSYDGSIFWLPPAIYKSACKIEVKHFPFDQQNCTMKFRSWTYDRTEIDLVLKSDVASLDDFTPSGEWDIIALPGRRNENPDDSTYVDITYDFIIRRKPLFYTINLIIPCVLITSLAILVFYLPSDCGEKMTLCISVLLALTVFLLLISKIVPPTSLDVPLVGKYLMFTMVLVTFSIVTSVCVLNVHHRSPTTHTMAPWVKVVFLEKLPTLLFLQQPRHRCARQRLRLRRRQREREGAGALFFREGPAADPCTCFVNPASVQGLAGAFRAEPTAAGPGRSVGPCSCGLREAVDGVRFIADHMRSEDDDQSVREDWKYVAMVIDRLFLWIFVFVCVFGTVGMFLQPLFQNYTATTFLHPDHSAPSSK
method_summary: In vivo receptor occupancy at alpha4beta2 nAChR in Wistar rat assessed as brain concentration pretreated for 15 mins followed by non radiolabelled ZW-104 tracer treatment and measured after 45 mins by LC-MS/MS analysis
Format: functional, organism-based
property_measured: EC50 (µM)
Just the number in µM, nothing appended.

# input Report EC50 for "Cl.Clc1ccc(OC[C@@H]2C[C@H]3C[C@H]3N2)cn1"
# output 334

====

measured_target: Neuronal acetylcholine receptor; alpha4/beta2 (Homo sapiens, UniProt P17787+P43681)
method_summary: Displacement of [3H]cytisine from human alpha4beta2 nAChR expressed in CHOK1 cell membrane by microbeta scintillation counting method
property_measured: pKi
Value format note: pKi is -log10 of concentration (mol/L); just state the number.

# compound, property_measured, quantitative_readout
measured = [
    ("Brc1cncc(OC[C@@H]2C[C@@H]3C[C@@H]3N2)c1", "pKi", 8.54),
    ("CN1[C@H](COc2cncc(Cl)c2)C[C@H]2C[C@H]21", "pKi", 9.43),
    ("OCCCCC#Cc1cncc(OC[C@@H]2C[C@H]3C[C@H]3N2)c1", "pKi", 8.57),
    ("C[C@@]12C[C@@H]1CC(COc1ccc(Cl)nc1)N2 (stereo not given in full)", "pKi", 5.16),
    ("C[C@@]12C[C@@H]1CC(COc1cncc(Cl)c1)N2 (stereo not given in full)", "pKi", 6.24),
    ("Cl.Fc1ccc(OC[C@@H]2C[C@H]3C[C@H]3N2)cn1", "pKi", 8.41),
]

# input Provide one value: measured pKi of "Fc1ccc(OC[C@@H]2C[C@@H]3C[C@@H]3N2)cn1"
# output 8.92

# input Tell me pKi reported for "Clc1ccc(OCC[C@@H]2C[C@H]3C[C@H]3N2)cn1"
# output 6.49

# input Give the value of pKi reported for the following: "Cl.Clc1cncc(OC[C@@H]2C[C@H]3C[C@H]3N2)c1"
# output 9.72

# input Give pKi for the following compound: "Cc1nnc(-c2cncc(OC[C@@H]3C[C@H]4C[C@H]4N3)c2)o1"
# output 6.39

====

method_summary: Oral bioavailability in Wistar rat at 10 ml/kg measured upto 24 hrs by LC-MS/MS analysis
Type: ADME, organism-based
condition_summary: in vivo
Documented bioavailability across a set of molecules
Please state the number and follow it with the unit.

# smiles, bioavailability
records = [
    ("Cl.Clc1ccc(OC[C@@H]2C[C@@H]3C[C@@H]3N2)cn1", "66%"),
    ("Cl.Clc1ccc(OC[C@H]2C[C@@H]3C[C@@H]3N2)cn1", "35%"),
    ("Cl.Clc1ccc(OC[C@@H]2CC[C@H]3C[C@H]3N2)cn1", "48%"),
    ("Cl.Clc1ccc(OC[C@@H]2C[C@H]3C[C@H]3N2)cn1", "66%"),
    ("Cl.Clc1cncc(OC[C@@H]2C[C@H]3C[C@H]3N2)c1", "50%"),
    ("Cl.Clc1ncccc1OC[C@@H]1C[C@H]2C[C@H]2N1", "54%"),
]

# input Give the value of bioavailability reported for the following: "Cl.c1cncc(OC[C@@H]2C[C@H]3C[C@H]3N2)c1"
# output 92%

# input Return value of bioavailability for input "Cl.c1cncc(OC[C@@H]2C[C@@H]3C[C@@H]3N2)c1" , no commentary.
# output 87%

# input Answer with the recorded bioavailability for the molecule listed here: "Cl.Fc1ccc(OC[C@@H]2C[C@H]3C[C@H]3N2)cn1"
# output 96%
